Target: UniProtKB Q92769
Assay: Inhibition of full-length recombinant human C-terminal GST tagged HDAC2 expressed in Sf9 insect cells using aminoluciferin peptide substrate at 100 nM preincubated for 3 hrs followed by substrate addition and measured after 30 mins by HDAC-Glo I/II chemiluminescence assay
Conditions: time 3.5 hrs
quantity_kind: inhibition (%)
State just the number; it will be interpreted in %.

IN: Entry under review: Cc1csc(CCn2cc(C(=O)Nc3cc(-c4ccccc4)ccc3N)nn2)n1 . Reported inhibition?
OUT: 0

IN: Entry under review: Nc1ccc(-c2cccs2)cc1NC(=O)c1ccc(-c2cn(Cc3cccc(-c4ccccc4)c3)nn2)s1 . Reported inhibition?
OUT: 0

IN: Entry under review: Nc1ccc(-c2ccsc2)cc1NC(=O)c1cn(CC(=O)c2ccccc2)nn1 . Reported inhibition?
OUT: 0

IN: Entry under review: Nc1ccc(-c2ccsc2)cc1NC(=O)c1cn(CCN2CCOCC2)nn1 . Reported inhibition?
OUT: 0

IN: Entry under review: Cc1ccc(-n2cc(C(=O)Nc3cc(-c4ccsc4)ccc3N)nn2)cc1C . Reported inhibition?
OUT: 0

IN: Entry under review: Nc1ccc(-c2cccs2)cc1NC(=O)c1ccc(-c2cn(Cc3ccc(-c4ccccc4)cc3)nn2)cc1 . Reported inhibition?
OUT: 0

IN: Entry under review: COc1ccc(CCn2cc(CCC(=O)Nc3cc(-c4ccsc4)ccc3N)nn2)cc1 . Reported inhibition?
OUT: 29

IN: Entry under review: Nc1ccc(-c2cccs2)cc1NC(=O)c1ccc(-c2cn(Cc3cccc4ccccc34)nn2)s1 . Reported inhibition?
OUT: 13

IN: Entry under review: Nc1ccc(-c2cccs2)cc1NC(=O)c1ccc(-c2cn(CCc3ccc(F)cc3)nn2)s1 . Reported inhibition?
OUT: 18

IN: Entry under review: Cc1ccc(CCn2cc(CCC(=O)Nc3cc(-c4cccs4)ccc3N)nn2)cc1 . Reported inhibition?
OUT: 30

IN: Entry under review: Nc1ccc(-c2ccccc2)cc1NC(=O)c1cn(CCC2CCCCC2)nn1 . Reported inhibition?
OUT: 0

IN: Entry under review: Nc1ccc(-c2cccs2)cc1NC(=O)c1ccc(-c2cn(CCCCCC(=O)O)nn2)cc1 . Reported inhibition?
OUT: 9

IN: Entry under review: Cc1ccc(-n2cc(CCC(=O)Nc3cc(-c4cccs4)ccc3N)nn2)cc1C . Reported inhibition?
OUT: 0

IN: Entry under review: COc1ccc(-n2cc(CCC(=O)Nc3cc(-c4cccs4)ccc3N)nn2)cc1 . Reported inhibition?
OUT: 14

IN: Entry under review: Nc1ccc(-c2ccccc2)cc1NC(=O)c1cn(CCc2cccc(Cl)c2)nn1 . Reported inhibition?
OUT: 0

IN: Entry under review: Nc1ccc(-c2ccsc2)cc1NC(=O)c1cn(Cc2ccc(Oc3ccccc3)cc2)nn1 . Reported inhibition?
OUT: 0

IN: Entry under review: Nc1ccc(-c2cccs2)cc1NC(=O)CCc1cn(CCCCCCC(=O)O)nn1 . Reported inhibition?
OUT: 9

IN: Entry under review: Nc1ccc(-c2ccsc2)cc1NC(=O)CCc1cn(CCc2ccsc2)nn1 . Reported inhibition?
OUT: 19

IN: Entry under review: Nc1ccc(-c2ccccc2)cc1NC(=O)c1cn(Cc2ccc3ccccc3n2)nn1 . Reported inhibition?
OUT: 6

IN: Entry under review: Nc1ccc(-c2cccnc2)cc1NC(=O)CCc1cn(CCCCCc2ccccc2)nn1 . Reported inhibition?
OUT: 16

* * *

Biological target: Histone deacetylase 8 (Homo sapiens)
Sequence (Q9BY41 whole entry): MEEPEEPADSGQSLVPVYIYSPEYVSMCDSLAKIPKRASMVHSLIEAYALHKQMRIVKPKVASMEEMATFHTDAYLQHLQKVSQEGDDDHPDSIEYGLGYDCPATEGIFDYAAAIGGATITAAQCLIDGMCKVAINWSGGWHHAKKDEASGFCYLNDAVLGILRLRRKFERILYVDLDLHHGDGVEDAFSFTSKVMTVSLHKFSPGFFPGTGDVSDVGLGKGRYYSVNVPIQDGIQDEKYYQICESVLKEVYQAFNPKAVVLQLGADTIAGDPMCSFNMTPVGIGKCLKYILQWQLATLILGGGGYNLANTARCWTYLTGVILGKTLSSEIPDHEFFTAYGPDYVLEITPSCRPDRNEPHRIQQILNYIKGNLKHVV
Experiment: Inhibition of full-length recombinant human C-terminal His-tagged HDAC8 expressed in Sf9 insect cells using aminoluciferin peptide substrate preincubated for 3 hrs followed by substrate addition and measured after 30 mins by HDAC-Glo I/II chemiluminescence assay
pIC50: −log10 of the molar value.
Can you tell me pIC50 for the items I'm about to list?

IN: Entry under review: Nc1ccc(-c2cccs2)cc1NC(=O)c1ccc(-c2cn(CS(=O)(=O)c3ccccc3)nn2)cc1 . Reported pIC50?
OUT: < 5.00

IN: Entry under review: Nc1ccc(-c2cccs2)cc1NC(=O)c1ccc(-c2cn(C[S+]([O-])c3ccccc3)nn2)cc1 (stereo not drawn) . Reported pIC50?
OUT: 5.35

IN: Entry under review: Nc1ccc(-c2cccs2)cc1NC(=O)c1ccc(-c2cn(CCc3ccccn3)nn2)cc1 . Reported pIC50?
OUT: < 5.00

* * *

Target: Histone deacetylase 2 (Homo sapiens, UniProt Q92769)
Sequence (Q92769 whole entry): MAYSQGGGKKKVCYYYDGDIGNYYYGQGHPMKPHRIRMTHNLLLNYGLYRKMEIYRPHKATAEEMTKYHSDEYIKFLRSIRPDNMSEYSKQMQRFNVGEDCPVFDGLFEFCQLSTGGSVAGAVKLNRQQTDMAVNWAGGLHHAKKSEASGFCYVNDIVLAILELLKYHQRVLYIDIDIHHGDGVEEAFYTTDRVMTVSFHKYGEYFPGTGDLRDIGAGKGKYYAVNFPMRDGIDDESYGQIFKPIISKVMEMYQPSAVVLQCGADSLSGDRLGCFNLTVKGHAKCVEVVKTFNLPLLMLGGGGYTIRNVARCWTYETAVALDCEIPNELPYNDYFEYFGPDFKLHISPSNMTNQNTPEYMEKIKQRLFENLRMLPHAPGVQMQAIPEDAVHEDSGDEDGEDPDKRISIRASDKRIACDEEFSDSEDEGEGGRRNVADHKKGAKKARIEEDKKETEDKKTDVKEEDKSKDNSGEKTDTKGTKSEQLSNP
Test: Inhibition of full-length recombinant human C-terminal GST tagged HDAC2 expressed in Sf9 insect cells using aminoluciferin peptide substrate at 100 nM preincubated for 3 hrs followed by substrate addition and measured after 30 mins by HDAC-Glo I/II chemiluminescence assay
Conditions: time 3.5 hrs
# if value of inhibition reaches 20%, tag Yes; if it stays below, tag No

IN: Could you tell me if the measured inhibition of Nc1ccc(-c2cccs2)cc1NC(=O)CCc1cn(CCc2ccccc2[N+](=O)[O-])nn1 reaches 20% or more?
OUT: Yes

IN: Could you tell me if the measured inhibition of Nc1ccc(-c2cccs2)cc1NC(=O)CCc1cn(CCc2ccc(Cl)cc2)nn1 reaches 20% or more?
OUT: Yes

IN: Could you tell me if the measured inhibition of Nc1ccc(-c2ccsc2)cc1NC(=O)c1cn(-c2ccccc2-c2ccccc2)nn1 reaches 20% or more?
OUT: No

IN: Could you tell me if the measured inhibition of Nc1ccc(-c2cccs2)cc1NC(=O)c1ccc(-c2cn(CCC34CC5CC(CC(C5)C3)C4)nn2)s1 reaches 20% or more?
OUT: No

IN: Could you tell me if the measured inhibition of Nc1ccc(-c2cccs2)cc1NC(=O)c1ccc(-c2cn(CCN3CCOCC3)nn2)s1 reaches 20% or more?
OUT: Yes

IN: Could you tell me if the measured inhibition of Nc1ccc(-c2cccs2)cc1NC(=O)c1ccc(-c2cn(CCc3c[nH]c4ccccc34)nn2)s1 reaches 20% or more?
OUT: Yes

IN: Could you tell me if the measured inhibition of Nc1ccc(-c2ccccc2)cc1NC(=O)CCc1cn(CC23CC4CC(CC(C4)C2)C3)nn1 reaches 20% or more?
OUT: No

IN: Could you tell me if the measured inhibition of Nc1ccc(-c2ccccc2)cc1NC(=O)c1cn(Cc2ccc(OC(F)(F)F)cc2)nn1 reaches 20% or more?
OUT: No

IN: Could you tell me if the measured inhibition of Nc1ccc(-c2ccsc2)cc1NC(=O)CCc1cn(CCc2ccc(C(F)(F)F)cc2)nn1 reaches 20% or more?
OUT: No

* * *

Target: Histone deacetylase 2 (Homo sapiens)
Experiment: Inhibition of full-length recombinant human C-terminal GST tagged HDAC2 expressed in Sf9 insect cells using aminoluciferin peptide substrate at 100 nM preincubated for 3 hrs followed by substrate addition and measured after 30 mins by HDAC-Glo I/II chemiluminescence assay
Conditions: time 3.5 hrs
quantity_kind: inhibition (%)
State just the number; it will be interpreted in %.

IN: Identify the measured inhibition of Cc1ccccc1CCn1cc(CCC(=O)Nc2cc(-c3ccsc3)ccc2N)nn1 for Histone deacetylase 2 (Homo sapiens).
OUT: 14

IN: Identify the measured inhibition of Nc1ccc(-c2cccs2)cc1NC(=O)c1cccc(-c2cn(CCCCC(=O)O)nn2)c1 for Histone deacetylase 2 (Homo sapiens).
OUT: 48

IN: Identify the measured inhibition of Nc1ccc(-c2ccsc2)cc1NC(=O)CCc1cn(CC(=O)Nc2ccc(F)cc2)nn1 for Histone deacetylase 2 (Homo sapiens).
OUT: 14

IN: Identify the measured inhibition of Nc1ccc(-c2cccs2)cc1NC(=O)c1cccc(-c2cn(Cc3ccc(Oc4ccccc4)cc3)nn2)c1 for Histone deacetylase 2 (Homo sapiens).
OUT: 0

IN: Identify the measured inhibition of Nc1ccc(-c2cccs2)cc1NC(=O)c1cn(CC(=O)Nc2ccc(F)cc2)nn1 for Histone deacetylase 2 (Homo sapiens).
OUT: 0

IN: Identify the measured inhibition of Nc1ccc(-c2ccccc2)cc1NC(=O)CCc1cn(/C=C/c2ccccc2)nn1 for Histone deacetylase 2 (Homo sapiens).
OUT: 15

IN: Identify the measured inhibition of Nc1ccc(-c2ccccc2)cc1NC(=O)CCc1cn(Cc2nc3ccccc3[nH]2)nn1 for Histone deacetylase 2 (Homo sapiens).
OUT: 27

IN: Identify the measured inhibition of Nc1ccc(-c2ccsc2)cc1NC(=O)CCc1cn(CCC23CC4CC(CC(C4)C2)C3)nn1 for Histone deacetylase 2 (Homo sapiens).
OUT: 0

IN: Identify the measured inhibition of Nc1ccc(-c2cccs2)cc1NC(=O)CCc1cn(CCc2ccccc2Cl)nn1 for Histone deacetylase 2 (Homo sapiens).
OUT: 5

IN: Identify the measured inhibition of Nc1ccc(-c2cccs2)cc1NC(=O)CCc1cn(CCc2cccc([N+](=O)[O-])c2)nn1 for Histone deacetylase 2 (Homo sapiens).
OUT: 27

IN: Identify the measured inhibition of Nc1ccc(-c2cccnc2)cc1NC(=O)CCc1cn(CCCCCCCC(=O)O)nn1 for Histone deacetylase 2 (Homo sapiens).
OUT: 0

IN: Identify the measured inhibition of Nc1ccc(-c2cccs2)cc1NC(=O)c1ccc(-c2cn(CCCCCC(=O)O)nn2)s1 for Histone deacetylase 2 (Homo sapiens).
OUT: 54

IN: Identify the measured inhibition of Nc1ccc(-c2cccnc2)cc1NC(=O)CCc1cn(CCc2cccc(C(F)(F)F)c2)nn1 for Histone deacetylase 2 (Homo sapiens).
OUT: 13

IN: Identify the measured inhibition of Nc1ccc(-c2ccc(F)cc2)cc1NC(=O)c1cn(CC(=O)Nc2ccc(F)cc2)nn1 for Histone deacetylase 2 (Homo sapiens).
OUT: 32

IN: Identify the measured inhibition of Nc1ccc(-c2ccccc2)cc1NC(=O)c1cn(CCc2ccccc2[N+](=O)[O-])nn1 for Histone deacetylase 2 (Homo sapiens).
OUT: 0

IN: Identify the measured inhibition of Nc1ccc(-c2cccnc2)cc1NC(=O)CCc1cn(CCc2cccc3ccccc23)nn1 for Histone deacetylase 2 (Homo sapiens).
OUT: 13

IN: Identify the measured inhibition of Nc1ccc(-c2cccs2)cc1NC(=O)c1ccc(-c2cn(CCC3CCCCC3)nn2)s1 for Histone deacetylase 2 (Homo sapiens).
OUT: 0

IN: Identify the measured inhibition of Nc1ccc(-c2cccs2)cc1NC(=O)CCc1cn(-c2ccc([N+](=O)[O-])cc2)nn1 for Histone deacetylase 2 (Homo sapiens).
OUT: 15

IN: Identify the measured inhibition of Nc1ccc(-c2ccsc2)cc1NC(=O)CCc1cn(CCc2ccc3ccccc3n2)nn1 for Histone deacetylase 2 (Homo sapiens).
OUT: 20

IN: Identify the measured inhibition of Nc1ccc(-c2cccs2)cc1NC(=O)c1cccc(-c2cn(Cc3cccc(-c4ccccc4)c3)nn2)c1 for Histone deacetylase 2 (Homo sapiens).
OUT: 0

IN: Identify the measured inhibition of Nc1ccc(-c2cccnc2)cc1NC(=O)CCc1cn(CC23CC4CC(CC(C4)C2)C3)nn1 for Histone deacetylase 2 (Homo sapiens).
OUT: 2

IN: Identify the measured inhibition of Nc1ccc(-c2cccs2)cc1NC(=O)CCc1cn(CCc2cccc3ccccc23)nn1 for Histone deacetylase 2 (Homo sapiens).
OUT: 0

IN: Identify the measured inhibition of Nc1ccc(-c2cccs2)cc1NC(=O)c1cn(CCCCCCC(=O)O)nn1 for Histone deacetylase 2 (Homo sapiens).
OUT: 7

IN: Identify the measured inhibition of Nc1ccc(-c2cccs2)cc1NC(=O)c1cccc(-c2cn(-c3ccc(I)cc3)nn2)c1 for Histone deacetylase 2 (Homo sapiens).
OUT: 7

IN: Identify the measured inhibition of Cc1csc(CCn2cc(-c3cccc(C(=O)Nc4cc(-c5cccs5)ccc4N)c3)nn2)n1 for Histone deacetylase 2 (Homo sapiens).
OUT: 24

IN: Identify the measured inhibition of Nc1ccc(-c2cccs2)cc1NC(=O)c1ccc(-c2cn(-c3ccc(O)cc3)nn2)cc1 for Histone deacetylase 2 (Homo sapiens).
OUT: 16

IN: Identify the measured inhibition of Nc1ccc(-c2ccsc2)cc1NC(=O)CCc1cn(CCCCCCC(=O)O)nn1 for Histone deacetylase 2 (Homo sapiens).
OUT: 0

IN: Identify the measured inhibition of Nc1ccc(-c2ccc(F)cc2)cc1NC(=O)c1cn(Cc2cccc3ccccc23)nn1 for Histone deacetylase 2 (Homo sapiens).
OUT: 8

IN: Identify the measured inhibition of Nc1ccc(-c2cccs2)cc1NC(=O)c1ccc(-c2cn(-c3ccc(Br)cc3)nn2)s1 for Histone deacetylase 2 (Homo sapiens).
OUT: 0

IN: Identify the measured inhibition of Nc1ccc(-c2cccs2)cc1NC(=O)c1cn(-c2cccc3ccccc23)nn1 for Histone deacetylase 2 (Homo sapiens).
OUT: 0

IN: Identify the measured inhibition of Nc1ccc(-c2ccsc2)cc1NC(=O)CCc1cn(C[S+]([O-])c2ccccc2)nn1 (centres undefined) for Histone deacetylase 2 (Homo sapiens).
OUT: 8

IN: Identify the measured inhibition of Nc1ccc(-c2cccs2)cc1NC(=O)CCc1cn(-c2ccc(Br)cc2)nn1 for Histone deacetylase 2 (Homo sapiens).
OUT: 11

IN: Identify the measured inhibition of Nc1ccc(-c2ccccc2)cc1NC(=O)CCc1cn(CCc2ccccc2Cl)nn1 for Histone deacetylase 2 (Homo sapiens).
OUT: 0

IN: Identify the measured inhibition of Nc1ccc(-c2ccc(F)cc2)cc1NC(=O)c1cn(-c2cccc3ccccc23)nn1 for Histone deacetylase 2 (Homo sapiens).
OUT: 4

IN: Identify the measured inhibition of Nc1ccc(-c2ccccc2)cc1NC(=O)c1cn(CS(=O)(=O)c2ccccc2)nn1 for Histone deacetylase 2 (Homo sapiens).
OUT: 0

IN: Identify the measured inhibition of Nc1ccc(-c2cccs2)cc1NC(=O)c1cn(CCc2cccc(C(F)(F)F)c2)nn1 for Histone deacetylase 2 (Homo sapiens).
OUT: 0

IN: Identify the measured inhibition of Nc1ccc(-c2ccsc2)cc1NC(=O)c1cn(CC2CCCCC2)nn1 for Histone deacetylase 2 (Homo sapiens).
OUT: 0

IN: Identify the measured inhibition of Nc1ccc(-c2cccs2)cc1NC(=O)c1ccc(-c2cn(CS(=O)(=O)c3ccccc3)nn2)cc1 for Histone deacetylase 2 (Homo sapiens).
OUT: 77

IN: Identify the measured inhibition of Cc1ccccc1CCn1cc(CCC(=O)Nc2cc(-c3cccs3)ccc2N)nn1 for Histone deacetylase 2 (Homo sapiens).
OUT: 13
